# Test system: large crabgrass
# TEST_SUMMARY: Test C pre-/postemergence herbicide test
# Format: in vivo, Digitaria sanguinalis
# EXPERIMENTAL_PARAMETERS: Preemergence, 500 g ai/ha; scale 0 to 100, 0 no effect, 100 complete control
Reported Crabgrass, Large plant response rating by item:

// query If you can, please state the reported Crabgrass, Large plant response rating value of CCNC(=O)c1cccc(NC(=O)c2sc(C(C)(C)C)nc2C)c1 [Compound 198] .
// result 95

***
// query If you can, please state the reported Crabgrass, Large plant response rating value of CC(=NO)c1cccc(NC(=O)c2sc(C(C)(C)C)nc2C)c1 [Compound 195] .
// result 70

// query If you can, please state the reported Crabgrass, Large plant response rating value of CCn1nc(C(C)(C)C)cc1C(=O)Nc1cccc(SC(F)(F)F)c1 [Compound 130] .
// result 95
